Cited source: ChEMBL document CHEMBL1152919

- target-system: UniProt Q00613
- Sequence (Q00613 whole entry): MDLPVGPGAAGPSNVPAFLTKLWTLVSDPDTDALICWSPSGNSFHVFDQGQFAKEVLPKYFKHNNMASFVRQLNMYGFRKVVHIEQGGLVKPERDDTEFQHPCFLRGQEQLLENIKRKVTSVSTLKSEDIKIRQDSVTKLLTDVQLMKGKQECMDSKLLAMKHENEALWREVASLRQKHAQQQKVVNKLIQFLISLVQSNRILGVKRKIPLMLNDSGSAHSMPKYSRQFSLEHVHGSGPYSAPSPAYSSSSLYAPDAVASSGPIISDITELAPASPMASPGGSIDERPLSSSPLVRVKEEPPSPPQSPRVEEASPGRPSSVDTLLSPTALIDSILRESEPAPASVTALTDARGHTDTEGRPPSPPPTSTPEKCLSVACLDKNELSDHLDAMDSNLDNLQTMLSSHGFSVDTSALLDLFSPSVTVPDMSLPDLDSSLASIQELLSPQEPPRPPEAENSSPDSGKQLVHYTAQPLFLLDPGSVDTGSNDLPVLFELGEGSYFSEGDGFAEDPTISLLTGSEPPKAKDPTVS
- assay-protocol: Transcriptional activation of HSF1 in heat shock stress-induced human HeLa cells assessed as granule formation treated 1 hr before heat shock challenge measured after 2 hrs by immunocytochemical staining
- Assay type: cell-based
The source made the active and inactive calls. The rule behind the calls is not given here.
assay-metric: Activity

[[record]]
molecule = "OC(CO/N=C(\\Cl)c1nc2ccccc2o1)CN1CCCCC1 (centres undefined)"
measured_value = "58%"

[[record]]
molecule = "CCC(C)N(CC(O)CO/N=C(\\Cl)c1nc2ccccc2o1)C(C)CC (centres undefined)"
measured_value = "inactive"

[[record]]
molecule = "O=C(NCC(O)CO/N=C(\\Cl)c1nc2ccccc2o1)N1CCCCC1 (centres undefined)"
measured_value = "inactive"

[[record]]
molecule = "CC(C)(C)NCC(O)CO/N=C(\\Cl)c1nc2ccccc2o1 (centres undefined)"
measured_value = "inactive"

